TEST TARGET: UniProt:O96013
Sequence (O96013 whole entry, looked up): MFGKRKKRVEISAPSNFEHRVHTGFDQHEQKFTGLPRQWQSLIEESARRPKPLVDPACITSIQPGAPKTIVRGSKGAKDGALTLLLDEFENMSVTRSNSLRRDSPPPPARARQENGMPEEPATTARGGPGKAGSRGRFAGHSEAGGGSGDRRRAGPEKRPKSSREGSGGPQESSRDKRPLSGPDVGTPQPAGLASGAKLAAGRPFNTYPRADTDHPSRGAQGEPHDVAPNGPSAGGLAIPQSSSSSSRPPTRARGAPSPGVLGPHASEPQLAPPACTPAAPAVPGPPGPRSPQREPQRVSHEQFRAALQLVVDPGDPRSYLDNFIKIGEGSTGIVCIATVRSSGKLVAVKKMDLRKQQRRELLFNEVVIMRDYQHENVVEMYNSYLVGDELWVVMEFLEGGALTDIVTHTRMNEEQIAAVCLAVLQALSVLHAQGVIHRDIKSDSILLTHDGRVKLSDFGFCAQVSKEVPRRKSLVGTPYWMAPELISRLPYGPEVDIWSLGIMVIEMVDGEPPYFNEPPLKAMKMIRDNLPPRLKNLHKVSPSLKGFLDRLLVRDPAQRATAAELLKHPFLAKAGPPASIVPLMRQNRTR
ASSAY NAME: radiometric filter-binding kinase assay, Kinase HotSpot
RECORDED CONDITIONS: compound 0.5 µM; ATP 10 µM
PARAMETER: residual activity (%)
One number for each entry, in %.

[
  {
    "COMPOUND": "O=C1NC(=O)C(c2c[nH]c3ccccc23)=C1c1c[nH]c2ccccc12",
    "TEST TARGET": "UniProt:O96013",
    "residual activity, %": 102
  },
  {
    "COMPOUND": "O=C(CCCc1ccc(-c2ccccc2F)cc1)Nc1ccc(O)cc1",
    "TEST TARGET": "UniProt:O96013",
    "residual activity, %": 95.4
  }
]

Give residual activity for all compounds that follow.
1. O=C1Nc2ccccc2/C1=C1\Nc2ccccc2\C1=N/O
2. Cn1cnc2cc3c(Nc4cccc(Br)c4)ncnc3cc21
3. O=C1Cc2c([nH]c3ccc(Br)cc23)-c2ccccc2N1
4. Cc1nc2cc3nc(-c4cccs4)cnc3cc2n1C

[77.1, 105, 92.2, 126]

Give residual activity for all compounds that follow.
1. COc1cc2ncnc(N3CCN(C(=O)Nc4ccc(Oc5ccccc5)cc4)CC3)c2cc1OC
2. O=C1NC(=O)C(c2cn(CCCO)c3ncccc23)=C1c1cnccn1
3. CC(C)[C@H](CO)Nc1nc(Nc2cc(N)cc(Cl)c2)c2ncn(C(C)C)c2n1
4. Oc1ccc(Nc2nc(-c3ccc(Cl)cc3)cs2)cc1
5. Nc1nnc2[nH]c3ccccc3nc1-2
6. CCn1cnc2c(Nc3cccc(Cl)c3)nc(N[C@@H]3CCCC[C@@H]3N)nc21
7. CC(C)c1nn(-c2c(Cl)cccc2Cl)c2nc(Cc3ccc(OCCO)cc3)nc(O)c12
8. COc1ccc(OC)c2c(=S)c3ccccc3[nH]c12

101
111
102
102
104
84.5
106
102

Give residual activity for all compounds that follow.
1. Cn1nc2c3c(cccc31)C(=O)c1ccccc1-2
2. COc1cc2ncc(-c3ccccc3)nc2cc1OC
3. COc1ccc(CNC(=O)Nc2ncc([N+](=O)[O-])s2)cc1
4. Cn1sc(=O)n(Cc2ccccc2)c1=O
5. O=C(O)/C=C/c1cc(Br)c(Br)c(Br)c1Br
6. Nc1nccc(-c2c(-c3ccc(F)cc3)ncn2C2CCNCC2)n1
7. CN(C)C[C@H]1CCn2c(c(C3=C(c4cn(C)c5ccccc45)C(=O)NC3=O)c3ccccc32)C1
8. CN([C@@H](Cc1ccc(OS(=O)(=O)c2cccc3cnccc23)cc1)C(=O)N1CCN(c2ccccc2)CC1)S(=O)(=O)c1cccc2cnccc12

1. 90.4
2. 75.9
3. 115
4. 104
5. 104
6. 95.1
7. 104
8. 94.6

Give residual activity for all compounds that follow.
1. O=C1NC(=O)/C(=C\c2ccc3nccnc3c2)S1
2. O=C1Nc2ccccc2/C1=C1/Nc2ccccc2/C1=N\OCCC(O)CO (configuration not stated)
3. CC(=O)O/N=C1\C(=C2\C(=O)Nc3cc(Br)ccc32)Nc2ccccc21
4. O=C(Nc1cccc(Nc2cc(Nc3cccc(C(F)(F)F)c3)ncn2)c1)C1CC1
5. CCN(CC)CCCCN1c2ccccc2Oc2ccc(Cl)cc21

1: 88.5; 2: 84.5; 3: 92.7; 4: 103; 5: 104

----------
TEST TARGET: AKT2 (human)
ASSAY NAME: radiometric filter-binding kinase assay, Kinase HotSpot
RECORDED CONDITIONS: compound 0.5 µM; ATP 10 µM
Please respond with reported residual activity for every item in the list.
Answers are plain numbers, in %.

[
  {
    "COMPOUND": "COc1cc2ncnc(N3CCN(C(=O)Nc4ccc(Oc5ccccc5)cc4)CC3)c2cc1OC",
    "RECORDED VALUE": 87.6
  },
  {
    "COMPOUND": "CN(C)C[C@H]1CCn2c(c(C3=C(c4cn(C)c5ccccc45)C(=O)NC3=O)c3ccccc32)C1",
    "RECORDED VALUE": 92.6
  },
  {
    "COMPOUND": "Cn1cnc2cc3c(Nc4cccc(Br)c4)ncnc3cc21",
    "RECORDED VALUE": 106
  }
]

Give residual activity for all compounds that follow.
1. CC(=O)O/N=C1\C(=C2\C(=O)Nc3cc(Br)ccc32)Nc2ccccc21
2. CC(C)c1nn(-c2c(Cl)cccc2Cl)c2nc(Cc3ccc(OCCO)cc3)nc(O)c12
3. COc1cc2ncc(-c3ccccc3)nc2cc1OC
4. O=C1NC(=O)/C(=C\c2ccc3nccnc3c2)S1
5. O=C(O)/C=C/c1cc(Br)c(Br)c(Br)c1Br
6. Nc1nnc2[nH]c3ccccc3nc1-2
7. CCn1cnc2c(Nc3cccc(Cl)c3)nc(N[C@@H]3CCCC[C@@H]3N)nc21
8. Nc1nccc(-c2c(-c3ccc(F)cc3)ncn2C2CCNCC2)n1

1: 113; 2: 92.4; 3: 86.7; 4: 101; 5: 97.5; 6: 90.1; 7: 108; 8: 94.8

----------
Please respond with reported residual activity for every item in the list.
TEST TARGET: CDK1 CCNB1 (human) (UniProt P06493+P14635)
Sequence (P06493 whole entry, looked up): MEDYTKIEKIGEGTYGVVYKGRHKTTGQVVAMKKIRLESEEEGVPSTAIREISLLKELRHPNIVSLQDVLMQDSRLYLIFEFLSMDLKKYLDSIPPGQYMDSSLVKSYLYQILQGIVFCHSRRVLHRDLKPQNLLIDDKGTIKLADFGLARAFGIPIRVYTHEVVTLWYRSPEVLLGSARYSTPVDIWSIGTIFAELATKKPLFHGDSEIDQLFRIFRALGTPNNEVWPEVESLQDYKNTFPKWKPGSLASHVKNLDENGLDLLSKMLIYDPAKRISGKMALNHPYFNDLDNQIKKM
Sequence (P14635 whole entry, looked up): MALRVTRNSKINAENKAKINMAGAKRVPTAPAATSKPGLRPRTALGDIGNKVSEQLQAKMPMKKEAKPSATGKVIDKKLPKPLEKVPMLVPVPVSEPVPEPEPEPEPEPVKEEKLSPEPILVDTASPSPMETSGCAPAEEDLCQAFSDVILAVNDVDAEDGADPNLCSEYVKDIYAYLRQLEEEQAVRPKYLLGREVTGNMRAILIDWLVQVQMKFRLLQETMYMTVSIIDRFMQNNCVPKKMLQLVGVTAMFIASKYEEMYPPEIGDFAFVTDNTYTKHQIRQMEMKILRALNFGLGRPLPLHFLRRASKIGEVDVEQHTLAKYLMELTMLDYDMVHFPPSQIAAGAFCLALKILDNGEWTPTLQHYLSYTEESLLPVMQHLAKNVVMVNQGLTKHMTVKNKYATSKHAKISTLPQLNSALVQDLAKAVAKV
ASSAY NAME: radiometric filter-binding kinase assay, Kinase HotSpot
RECORDED CONDITIONS: compound 0.5 µM; ATP 10 µM
State the result as a value with its unit after it.

Give residual activity for all compounds that follow.
1. O=C1Nc2ccccc2/C1=C1\Nc2ccccc2\C1=N/O
2. COc1cc2ncc(-c3ccccc3)nc2cc1OC
3. COc1cc2ncnc(N3CCN(C(=O)Nc4ccc(Oc5ccccc5)cc4)CC3)c2cc1OC
4. COc1ccc(CNC(=O)Nc2ncc([N+](=O)[O-])s2)cc1
5. CCN(CC)CCCCN1c2ccccc2Oc2ccc(Cl)cc21
6. CN(C)C[C@H]1CCn2c(c(C3=C(c4cn(C)c5ccccc45)C(=O)NC3=O)c3ccccc32)C1

1. 68.7%
2. 105%
3. 105%
4. 85.1%
5. 96.8%
6. 53.7%

----------
TEST TARGET: FGR (human) (UniProt P09769)
Sequence (P09769 whole entry, looked up): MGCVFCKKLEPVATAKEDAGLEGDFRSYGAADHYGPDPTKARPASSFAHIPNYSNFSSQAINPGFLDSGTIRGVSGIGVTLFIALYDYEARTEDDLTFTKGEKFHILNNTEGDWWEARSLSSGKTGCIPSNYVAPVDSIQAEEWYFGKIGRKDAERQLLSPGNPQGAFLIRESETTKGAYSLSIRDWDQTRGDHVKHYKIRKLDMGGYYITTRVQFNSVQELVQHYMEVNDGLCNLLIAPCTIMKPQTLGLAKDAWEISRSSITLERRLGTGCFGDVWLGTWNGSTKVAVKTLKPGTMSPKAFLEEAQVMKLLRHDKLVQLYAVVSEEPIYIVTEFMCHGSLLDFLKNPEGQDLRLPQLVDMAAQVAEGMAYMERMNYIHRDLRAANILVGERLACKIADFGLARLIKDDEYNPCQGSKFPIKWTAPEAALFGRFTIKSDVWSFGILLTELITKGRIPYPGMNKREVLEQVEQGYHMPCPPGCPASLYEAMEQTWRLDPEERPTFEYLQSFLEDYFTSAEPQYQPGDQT
ASSAY NAME: radiometric filter-binding kinase assay, Kinase HotSpot
RECORDED CONDITIONS: compound 0.5 µM; ATP 10 µM
Please respond with reported residual activity for every item in the list.
Answers are plain numbers, in %.

// known answers, use as guide
[
  {
    "SMILES ENTRY": "O=C1NC(=O)C(c2cn(CCCO)c3ncccc23)=C1c1cnccn1",
    "RECORDED VALUE": 108
  },
  {
    "SMILES ENTRY": "O=C1Nc2ccccc2/C1=C1\\Nc2ccccc2\\C1=N/O",
    "RECORDED VALUE": 35.7
  },
  {
    "SMILES ENTRY": "Cn1cnc2cc3c(Nc4cccc(Br)c4)ncnc3cc21",
    "RECORDED VALUE": 55.8
  }
]

State its residual activity on FGR (human) (UniProt P09769): CC(C)c1nn(-c2c(Cl)cccc2Cl)c2nc(Cc3ccc(OCCO)cc3)nc(O)c12
92

----------
TEST TARGET: OXSR1 (human)
ASSAY NAME: radiometric filter-binding kinase assay, Kinase HotSpot
RECORDED CONDITIONS: compound 0.5 µM; ATP 10 µM
Please respond with reported residual activity for every item in the list.
Answers are plain numbers, in %.

[
  {
    "MOLECULE": "CCn1cnc2c(Nc3cccc(Cl)c3)nc(N[C@@H]3CCCC[C@@H]3N)nc21",
    "TEST TARGET": "OXSR1 (human)",
    "PARAMETER": "residual activity",
    "RECORDED VALUE": 92.3
  },
  {
    "MOLECULE": "CN(C)C[C@H]1CCn2c(c(C3=C(c4cn(C)c5ccccc45)C(=O)NC3=O)c3ccccc32)C1",
    "TEST TARGET": "OXSR1 (human)",
    "PARAMETER": "residual activity",
    "RECORDED VALUE": 98.4
  }
]

Give residual activity for all molecules that follow.
1. Cc1nc2cc3nc(-c4cccs4)cnc3cc2n1C
2. O=C1NC(=O)/C(=C\c2ccc3nccnc3c2)S1
3. CC(=O)O/N=C1\C(=C2\C(=O)Nc3cc(Br)ccc32)Nc2ccccc21
4. COc1ccc(CNC(=O)Nc2ncc([N+](=O)[O-])s2)cc1

1. 99.4
2. 98.4
3. 112
4. 95.9

Give residual activity for all molecules that follow.
1. CC(C)c1nn(-c2c(Cl)cccc2Cl)c2nc(Cc3ccc(OCCO)cc3)nc(O)c12
2. Nc1nnc2[nH]c3ccccc3nc1-2
3. O=C(O)/C=C/c1cc(Br)c(Br)c(Br)c1Br
4. O=C1Cc2c([nH]c3ccc(Br)cc23)-c2ccccc2N1
5. O=C1NC(=O)C(c2c[nH]c3ccccc23)=C1c1c[nH]c2ccccc12
6. Cn1sc(=O)n(Cc2ccccc2)c1=O

93.8
92.7
93.5
107
86.3
91.1

Give residual activity for all molecules that follow.
1. Cn1cnc2cc3c(Nc4cccc(Br)c4)ncnc3cc21
2. Nc1nccc(-c2c(-c3ccc(F)cc3)ncn2C2CCNCC2)n1
3. O=C(CCCc1ccc(-c2ccccc2F)cc1)Nc1ccc(O)cc1
4. O=C1NC(=O)C(c2cn(CCCO)c3ncccc23)=C1c1cnccn1

1. 94.6
2. 101
3. 102
4. 101

Give residual activity for all molecules that follow.
1. O=C1Nc2ccccc2/C1=C1\Nc2ccccc2\C1=N/O
2. CCN(CC)CCCCN1c2ccccc2Oc2ccc(Cl)cc21
3. O=C1Nc2ccccc2/C1=C1/Nc2ccccc2/C1=N\OCCC(O)CO (stereo unspecified)

1. 91.7
2. 89.8
3. 98.6

Give residual activity for all molecules that follow.
1. Cn1nc2c3c(cccc31)C(=O)c1ccccc1-2
2. CN([C@@H](Cc1ccc(OS(=O)(=O)c2cccc3cnccc23)cc1)C(=O)N1CCN(c2ccccc2)CC1)S(=O)(=O)c1cccc2cnccc12

1: 102; 2: 101
